Tested on: A. fumigatus MMX 5280 ATCC MYA-3626
Assay: MIC/MEC assay (CLSI microdilution)
Assay type: cell-based, Aspergillus fumigatus
Settings: Without Tween-80; 48 hr
Numbered stars: 1 amine (or outer) side, 2 acyl side, 3 side chain; on linkers, the order of the positions; unused ones are H or OH. Square brackets hold non-standard residues; d marks the D form. Peptide text beside a SMILES is read from it. X23 = CN([C@@H](Cc1cccc(-c2cccc3c2cnn3C)c1)C(=O)[*:2])[*:1]; X34 = CC[C@@H](C)[C@@H](O[*:1])C(=O)[*:2]; Hmp(2R,3S) = CC[C@H](C)[C@@H](O)C(=O)O; NMeVal(β-OH) = CN[C@H](C(=O)O)C(C)(C)O; NMeF = CN[C@@H](Cc1ccccc1)C(=O)O; aIle = CC[C@@H](C)[C@H](N)C(=O)O; NMeV = CN[C@H](C(=O)O)C(C)C
Reported metric: MIC

// for each compound in input: emit MIC
1. CC[C@@H](C)[C@@H]1NC(=O)[C@@H]2CCCN2C(=O)[C@H](Cc2ccccc2)N(C)C(=O)[C@H](Cc2ccccc2)NC(=O)[C@H](C(C)C)N(C)C(=O)[C@@H]([C@H](C)CC)OC(=O)[C@H](C(C)(C)O)N(C)C(=O)[C@H](CC(C)C)NC(=O)[C@H](C(C)C)N(C)C1=O [Aureobasidin A, reference compound] (cyclo(F[NMeF]P[aIle][NMeV]L[NMeVal(β-OH)][X34][NMeV]))
2. CC[C@H](C)[C@@H]1NC(=O)[C@@H]2CCCN2C(=O)[C@H](Cc2cccc(-c3cccc4c3cnn4C)c2)N(C)C(=O)[C@H](Cc2ccccc2)NC(=O)[C@H](C(C)C)N(C)C(=O)[C@@H]([C@@H](C)CC)OC(=O)[C@H](C(C)(C)O)N(C)C(=O)[C@H](CC(C)C)NC(=O)[C@H](C(C)C)N(C)C1=O [Compound 14] (cyclo(F[X23]PI[NMeV]L[NMeVal(β-OH)][Hmp(2R,3S)][NMeV]))

1. >64/>64 μg/mL
2. > 64 µg/mL
